# Tested on: rodent lifetime carcinogenesis bioassay, tumor incidence TD50
# test: carcinogenic potency in animals, long-term in vivo studies, CPDB compilation (AID 1745844)
# condition: rat; strain Fischer 344; females; inhaled; site: liver; lesion: hepatocellular adenoma + hepatocellular carcinoma + neoplastic nodule; dosed 102 weeks; study length 104 weeks
value_kind: TD50 (mg/kg/day)
Give the value, in units of mg/kg/day, as a plain number.

Query: Value lookup for TD50; key = ClCCl
Result: 4270

----------
# Test system: rodent lifetime carcinogenesis bioassay, tumor incidence TD50
# test: carcinogenic potency in animals, long-term in vivo studies, CPDB compilation (AID 1745844)
# condition: rat; strain Fischer 344; males; in feed; site: liver; lesion: hepatocellular adenoma + hepatocellular carcinoma + neoplastic nodule; dosed 78 weeks; study length 105 weeks
Recorded TD50, one value per entry.
Give the value, in units of mg/kg/day, as a plain number.

// worked examples, TD50 included
Nc1cc([N+](=O)[O-])ccc1C(=O)O; 3710
O=[N+]([O-])c1ccc2nc[nH]c2c1; 8830
Nc1ccc(Cl)cc1N; 1240
O=Nc1ccc(Nc2ccccc2)cc1; 201

Kindly consider the entry below.
Query: Value lookup for TD50; key = [O-]/[N+](=N\O)c1ccccc1
Result: 9.28
